Value source: patent US10941129B2

biological target: interaction between PD-1 and PD-L1 (Homo sapiens (Human), UniProt Q9NZQ7); assay: Cisbio PD-1/PD-L1 binding assay kit (HTRF); settings: read-out: IC50, inhibitory activity at molecular level on the interaction between PD-1 and PD-L1
Sequence (Q9NZQ7 19-238): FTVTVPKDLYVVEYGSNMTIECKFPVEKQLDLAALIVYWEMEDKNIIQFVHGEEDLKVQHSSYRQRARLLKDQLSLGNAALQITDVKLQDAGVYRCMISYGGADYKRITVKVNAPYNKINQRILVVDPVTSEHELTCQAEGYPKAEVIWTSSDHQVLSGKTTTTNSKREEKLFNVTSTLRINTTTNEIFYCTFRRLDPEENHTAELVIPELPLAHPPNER
Criterion: IC50 strictly under 200 nM. Met: 1. Not met: 0.

[
  {
    "molecule": "CC(=O)NCCNCc1ccc(OCc2cccc(-c3ccc4c(c3)OCCO4)c2Br)cc1OCc1cccc(C#N)c1 [Example 16]",
    "subject of test": "interaction between PD-1 and PD-L1 (Homo sapiens (Human), UniProt Q9NZQ7)",
    "cat": 0
  },
  {
    "molecule": "C[C@@H](NCc1cc(Cl)c(OCc2cccc(-c3ccccc3)c2Br)cc1OCc1cccc(C#N)c1)C(=O)O (stereo in doubt) [Example 25]",
    "subject of test": "interaction between PD-1 and PD-L1 (Homo sapiens (Human), UniProt Q9NZQ7)",
    "cat": 1
  },
  {
    "molecule": "CCN(CCO)Cc1ccc(OCc2cccc(-c3ccccc3)c2Br)cc1OCc1cccc(C#N)c1 [Example 3]",
    "subject of test": "interaction between PD-1 and PD-L1 (Homo sapiens (Human), UniProt Q9NZQ7)",
    "cat": 0
  },
  {
    "molecule": "C[C@H](O)[C@@H](NCc1ccc(OCc2cccc(-c3ccc4c(c3)OCCO4)c2Br)cc1OCc1cccc(C#N)c1)C(=O)O (stereo in doubt) [Example 19]",
    "subject of test": "interaction between PD-1 and PD-L1 (Homo sapiens (Human), UniProt Q9NZQ7)",
    "cat": 1
  },
  {
    "molecule": "C[C@H](NCc1ccc(OCc2cccc(-c3ccccc3)c2Br)cc1OCc1cccc(C#N)c1)C(=O)O [Example 6]",
    "subject of test": "interaction between PD-1 and PD-L1 (Homo sapiens (Human), UniProt Q9NZQ7)",
    "cat": 1
  },
  {
    "molecule": "C[C@H](O)[C@@H](NCc1ccc(OCc2cccc(-c3ccccc3)c2Br)cc1OCc1cccc(C#N)c1)C(=O)O (stereo in doubt) [Example 8]",
    "subject of test": "interaction between PD-1 and PD-L1 (Homo sapiens (Human), UniProt Q9NZQ7)",
    "cat": 1
  },
  {
    "molecule": "CS(=O)(=O)c1cccc(COc2cc(OCc3cccc(-c4ccccc4)c3Br)c(Cl)cc2CN[C@H](CO)C(=O)O)c1 (stereo in doubt) [Example 27]",
    "subject of test": "interaction between PD-1 and PD-L1 (Homo sapiens (Human), UniProt Q9NZQ7)",
    "cat": 1
  },
  {
    "molecule": "N#Cc1cccc(COc2cc(OCc3cccc(-c4ccccc4)c3Br)ccc2CNC2CCOCC2)c1 [Example 9]",
    "subject of test": "interaction between PD-1 and PD-L1 (Homo sapiens (Human), UniProt Q9NZQ7)",
    "cat": 0
  }
]
